System: OVCAR-4
Assay: NCI tumour cell line growth inhibition, 48 h
Calls of active or inactive are those of the source. No stated cut-off is given here; in the data, active = GI50 up to about 1.1 µM and inactive = higher.
Outcomes: active, inactive

{"compound": "C=C[C@@]1(C)CC(=O)[C@]2(O)[C@@]3(C)[C@@H](O)CCC(C)(C)[C@@H]3[C@H](O)[C@@H](OC(C)=O)[C@@]2(C)O1", "cat": "inactive"}
{"compound": "Cc1oc2nc(N(C)C)n3nnnc3c2c1C", "cat": "inactive"}
{"compound": "O=C(Oc1cc(=O)c(OC(=O)c2ccccc2)co1)c1ccccc1", "cat": "inactive"}
{"compound": "Cc1c(O)c(=O)ccn1CCc1ccc(O)cc1", "cat": "inactive"}
{"compound": "Cc1n[nH]c(=O)n1/N=C/c1ccc([N+](=O)[O-])o1", "cat": "inactive"}
{"compound": "CCCCCCCCCCCCCC(=O)OC(/C=C/C(C)C)C(O)C(O)C(OC)C(=O)NC1CCCCN(C)C1=O (stereo not drawn)", "cat": "inactive"}
{"compound": "O=C1CS(=O)(=O)C(c2cccc(Oc3ccccc3)c2)N1c1cccc(Cl)c1 (stereo not drawn)", "cat": "inactive"}
{"compound": "C/C(=N\\NC(=[Se])N1CCN(c2ccccn2)CC1)c1ccccn1", "cat": "active"}
{"compound": "Cc1cn(C2CC(O)C(CO)O2)c(=O)[nH]c1=O (stereo not drawn)", "cat": "inactive"}
{"compound": "Fc1cc(C2=C[C@H](c3ccc(Cl)cc3)NC(=S)N2)c(Cl)cc1Cl", "cat": "inactive"}
{"compound": "O=C(O)C1CC2CC(=O)C1C2 (stereo not drawn)", "cat": "inactive"}
{"compound": "Cc1cc2occ(C)c(=O)c2c2c1OC(C)(C)S2", "cat": "inactive"}
{"compound": "Nc1nc2ccc(OCC(O)CN3CCCCC3)cc2[n+]([O-])n1 (stereo not drawn)", "cat": "inactive"}
{"compound": "S=C1CC(c2ccccc2)Sc2ccc(Cl)cc2N1 (stereo not drawn)", "cat": "inactive"}
{"compound": "CN/C(=N\\C#N)N(Cc1ccccc1)Cc1ccccc1", "cat": "inactive"}
{"compound": "Cc1cc(C)c(C[C@H]2COC(=O)[C@]2(O)Cc2c(C)cc(C)cc2C)c(C)c1", "cat": "inactive"}
{"compound": "CCCN(C(=O)c1c(Cl)nnc(Cl)c1C(=O)c1cc(Cl)nnc1Cl)c1cc(Cl)nnc1Cl", "cat": "inactive"}
{"compound": "c1ccc2c(c1)ccc1nc(-c3ccc4c(c3)OCO4)c3c(c12)CCCC3", "cat": "inactive"}
